Recorded values, source patent US20170052184A1.

- Tested System: T1, HCV bt-134-154 (Peptide 1, HCVc 134-154) (Hepatitis C virus (numbering per HCV-1), biotin (carboxy-terminal per; N-terminal per))
- T1 peptide: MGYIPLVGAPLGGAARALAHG
- Procedure Text: EIA, captured mAb + biotin peptide
Experimental Readout: Reactivity (OD 492 nm)

[[record]]
binder = "HCV 208B-1094 (antibody, V domains shown) VH: EVQLQQSGPELVKPGASVKISCKTSGYTFTEYAMHWMKQSHGKSLEWIGGINPTNGDTIYNQRFKDKAKLTVDRSSSTAYMELRSLTSDDSALFYCARRELDYFASWGQGTTLTVSS VL: DIVLTQSPASLIVSLGQTATISCRASQSLSTSRFSYVHWIQQKPGQPPKLLIKYASNLESGVPVRFSGSGSGTDFTLNIHPVEEEDTATYFCQHSWEFPFTFGSGTKLKIKR"
experimental_readout = "Reactivity (OD 492 nm)"
observed_result = "0.12 OD units"

[[record]]
binder = "HCV 208A-442 (antibody, V domains shown) VH: DVQLQESGPGLVNPSQSLSLTCSVTGYSITSGYYWIWIRQFPGNKLEWMGYIKYDGGNNYSPSLKNRISIARDTSKNQFFLKLNSVTIEDTATYYCTRGSDSFDYWGQGTTLTVSS VL: DIVLTQSPASLAVSLGQRAIISCKASQSVSFAGTNLMHWYQQKPGQQPKLLIYRASNLETGVPTRFSGSGSRTDFTLNIHPVEEDDAATYYCQQSREYYTFGGGTKLEIKR"
experimental_readout = "Reactivity (OD 492 nm)"
observed_result = "0.08 OD units"

[[record]]
binder = "HCV 208B-911 (antibody, V domains shown) VH: QVHLQQPGAELVRPGVSVKLSCKASGYTFTTYSINWMKQRPGQGLEWIGNIYPSTSHTNYNQKFRDKATMTVDKSSSTAYMQLSSPTSEDSAVYYCTINAYSMDYWGQGTSVTVSS VL: QIVLTQSPEIMSASPGEKVTITCSASSSVSFMYWFQQKPGTSPKLWIYITSNLASGVPTRFSGSGSGTSYSLTISRMEAEDAATYYCQQRSSFPYTFGGGTKLEMKR"
experimental_readout = "Reactivity (OD 492 nm)"
observed_result = "0.09 OD units"

[[record]]
binder = "HCV 208A-1064 (antibody, V domains shown) VH: EVQLQQSGPELVKPGASVKISCKTSGYTFTEYAMHWMKQSHGKSLEWIGGINPTNGDTIYNQKFKDKAKLTVDRSSSTAYMELRSLTSDDSALFYCARRELDYFASWGQGTTLTVSS VL: DIVLTQSPASLIVSLGQTATISCRASQSVSTSRFSYLHWIQQKPGQPPKLLIKYASNLESGVPVRFSGSGSGTDFTLNIHPVEEEDTATYFCQHSWEFPFTFGSGTKLKIKR"
experimental_readout = "Reactivity (OD 492 nm)"
observed_result = "0.1 OD units"

[[record]]
binder = "HCV 208A-293 (antibody, V domains shown) VH: EVQLQQSGPELVKPGASVKISCKASGFTFTEYAMHWMKQSHGKSLEWIGGINPTNGDAIYNQKFKDKAKLTVDRSSSTAYMELRSLTSDDSALFYCARRELDYFPSWGQGTTLTVSS VL: DIVLTQSPASLIVSLGQRATISCRASQSVSTSRFSYVHWIQQKPGQPPKLLIKYASNLESGVPVRFSGSGSGTDFILNIHPVEEEDTATYFCQHSWEFPFTFGSGTKLEIKR"
experimental_readout = "Reactivity (OD 492 nm)"
observed_result = "0.08 OD units"

